Target: mu opioid receptor (Rattus norvegicus)
Sequence (P33535 whole entry): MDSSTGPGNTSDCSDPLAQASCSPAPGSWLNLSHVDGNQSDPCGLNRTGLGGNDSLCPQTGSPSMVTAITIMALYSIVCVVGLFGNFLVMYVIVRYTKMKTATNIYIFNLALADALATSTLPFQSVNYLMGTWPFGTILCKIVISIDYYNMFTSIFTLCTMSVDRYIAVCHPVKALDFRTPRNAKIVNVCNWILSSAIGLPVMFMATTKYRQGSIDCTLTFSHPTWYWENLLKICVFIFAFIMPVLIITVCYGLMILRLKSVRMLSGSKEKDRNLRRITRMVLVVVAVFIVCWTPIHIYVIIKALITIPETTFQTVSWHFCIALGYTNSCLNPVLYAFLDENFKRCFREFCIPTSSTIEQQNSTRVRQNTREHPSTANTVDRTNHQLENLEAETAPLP
Test: Rat brain mu opioid receptor binding assay ([3H]DAMGO)
Details: MOR Ki, Rat mu opioid receptor binding constant; rat forebrain membranes, ~0.8 nM [3H]DAMGO
parameter measured: Ki (nM)

c1ccc(CN2C3CCC2CC(=C2c4ccccc4Sc4cc(-c5cccnc5)ccc42)C3)nc1    97
O=c1[nH]c(-c2ccc3c(c2)Oc2ccccc2C3=C2CC3CCC(C2)N3)no1    768
N=C(c1ccc2c(c1)Oc1ccccc1C2=C1CC2CCC(C1)N2)N1CCOCC1    14900
Oc1cccc(-c2ccc3c(c2)Oc2ccccc2C3=C2CC3CCC(C2)N3)c1    706
O=C(NC(CO)Cc1ccccc1)c1ccc2c(c1)Oc1ccccc1C2=C1CC2CCC(C1)N2 (single isomer, unassigned) [Cpd 27]    100
c1ccc2c(c1)Oc1cc(-c3ccsc3)ccc1C2=C1CC2CCC(C1)N2    9280
O=C(c1ccc2c(c1)Oc1ccccc1C2=C1CC2CCC(C1)N2)N1CCC(O)C1 (single isomer, unassigned) [Cpd 69]    2060
COc1cccc2c1Oc1cc(-c3noc(=O)[nH]3)ccc1C2=C1CC2CCC(C1)N2    254
COc1ccccc1-c1ccc2c(c1)Oc1ccccc1C2=C1CC2CCC(C1)N2    7580
Fc1cccc(-c2ccc3c(c2)Oc2ccccc2C3=C2CC3CCC(C2)N3)c1    16500
NC(=O)c1ccccc1-c1ccc2c(c1)Oc1ccccc1C2=C1CC2CCC(C1)N2    1540
